System: MDA-MB-231
Assay: Antiproliferative activity against human MDA-MB-231 cells assessed as inhibition of cell growth measured after 72 hrs by MTT assay
Assay type: functional, cell-based
Conditions: MDA-MB-231, 72 h
pIC50: −log10 of the molar value.

compound: CCC(Oc1c2cc(C(C)(C)C)cc1Cc1cc(C(C)(C)C)cc(c1O)Cc1cc(C(C)(C)C)cc(c1OC(CC)C(=O)NCCCCCO)Cc1cc(C(C)(C)C)cc(c1O)C2)C(=O)NCCCCCO (centres undefined)
pIC50: 5.87
--
compound: CC(C)(C)c1cc2c(O)c(c1)Cc1cc(C(C)(C)C)cc(c1OC/C=C/C(=O)NCCCCCO)Cc1cc(C(C)(C)C)cc(c1O)Cc1cc(C(C)(C)C)cc(c1OC/C=C/C(=O)NCCCCCO)C2
pIC50: 4.03
--
compound: CCC(Oc1c2cc(C(C)(C)C)cc1Cc1cc(C(C)(C)C)cc(c1O)Cc1cc(C(C)(C)C)cc(c1OC(CC)C(=O)N(CCO)CCO)Cc1cc(C(C)(C)C)cc(c1O)C2)C(=O)N(CCO)CCO (centres undefined)
pIC50: 6.18
--
compound: CC(C)(C)c1cc2c(O)c(c1)Cc1cc(C(C)(C)C)cc(c1OC/C=C/C(=O)N(CCO)CCO)Cc1cc(C(C)(C)C)cc(c1O)Cc1cc(C(C)(C)C)cc(c1OC/C=C/C(=O)N(CCO)CCO)C2
pIC50: 5.17

----------
System: A549
Assay: Antiproliferative activity against human A549 cells assessed as inhibition of cell growth measured after 72 hrs by MTT assay
Format: functional, cell-based
Details: A549, 72 h
Quick list: IC50 per entry.

compound: CC(C)(C)c1cc2c(O)c(c1)Cc1cc(C(C)(C)C)cc(c1OCCCC(=O)NCCCO)Cc1cc(C(C)(C)C)cc(c1O)Cc1cc(C(C)(C)C)cc(c1OCCCC(=O)NCCCO)C2
measured.on: A549
relation.operator: =
IC50 (µM): 10.3

compound: CCC(Oc1c2cc(C(C)(C)C)cc1Cc1cc(C(C)(C)C)cc(c1O)Cc1cc(C(C)(C)C)cc(c1OC(CC)C(=O)N(CCO)CCO)Cc1cc(C(C)(C)C)cc(c1O)C2)C(=O)N(CCO)CCO (stereo unspecified)
measured.on: A549
relation.operator: =
IC50 (µM): 1.2

compound: CC(C)(C)c1cc2c(O)c(c1)Cc1cc(C(C)(C)C)cc(c1OCCCCCC(=O)NCCCO)Cc1cc(C(C)(C)C)cc(c1O)Cc1cc(C(C)(C)C)cc(c1OCCCCCC(=O)NCCCO)C2
measured.on: A549
relation.operator: >
IC50 (µM): 100

compound: CC(Oc1c2cc(C(C)(C)C)cc1Cc1cc(C(C)(C)C)cc(c1O)Cc1cc(C(C)(C)C)cc(c1OC(C)C(=O)NCCO)Cc1cc(C(C)(C)C)cc(c1O)C2)C(=O)NCCO (stereo unspecified)
measured.on: A549
relation.operator: =
IC50 (µM): 2.5

compound: CC(C)(C)c1cc2c(O)c(c1)Cc1cc(C(C)(C)C)cc(c1OCCCCCC(=O)N(CCO)CCO)Cc1cc(C(C)(C)C)cc(c1O)Cc1cc(C(C)(C)C)cc(c1OCCCCCC(=O)N(CCO)CCO)C2
measured.on: A549
relation.operator: >
IC50 (µM): 100

compound: CCC(Oc1c2cc(C(C)(C)C)cc1Cc1cc(C(C)(C)C)cc(c1O)Cc1cc(C(C)(C)C)cc(c1OC(CC)C(=O)NCCO)Cc1cc(C(C)(C)C)cc(c1O)C2)C(=O)NCCO (stereo unspecified)
measured.on: A549
relation.operator: =
IC50 (µM): 2.22

compound: CCC(Oc1c2cc(C(C)(C)C)cc1Cc1cc(C(C)(C)C)cc(c1O)Cc1cc(C(C)(C)C)cc(c1OC(CC)C(=O)NCCCO)Cc1cc(C(C)(C)C)cc(c1O)C2)C(=O)NCCCO (stereo unspecified)
measured.on: A549
relation.operator: =
IC50 (µM): 0.96

compound: CC(C)(C)c1cc2c(O)c(c1)Cc1cc(C(C)(C)C)cc(c1OCCCC(=O)NCCCCCO)Cc1cc(C(C)(C)C)cc(c1O)Cc1cc(C(C)(C)C)cc(c1OCCCC(=O)NCCCCCO)C2
measured.on: A549
relation.operator: =
IC50 (µM): 7.64

compound: CC(C)(C)c1cc2c(O)c(c1)Cc1cc(C(C)(C)C)cc(c1OCC(=O)NCCO)Cc1cc(C(C)(C)C)cc(c1O)Cc1cc(C(C)(C)C)cc(c1OCC(=O)NCCO)C2
measured.on: A549
relation.operator: =
IC50 (µM): 3.84

compound: CC(C)(C)c1cc2c(O)c(c1)Cc1cc(C(C)(C)C)cc(c1OCCCCCC(=O)NCCO)Cc1cc(C(C)(C)C)cc(c1O)Cc1cc(C(C)(C)C)cc(c1OCCCCCC(=O)NCCO)C2
measured.on: A549
relation.operator: >
IC50 (µM): 100

compound: CC(Oc1c2cc(C(C)(C)C)cc1Cc1cc(C(C)(C)C)cc(c1O)Cc1cc(C(C)(C)C)cc(c1OC(C)C(=O)NCCCCCO)Cc1cc(C(C)(C)C)cc(c1O)C2)C(=O)NCCCCCO (stereo unspecified)
measured.on: A549
relation.operator: =
IC50 (µM): 2.98
